Sourced from patent US7423017B2

Overview of reported Fold potency reduction IC50 (BP1-01) / IC50 (mut) across a group of substances:
Target: IGFBP-1 (Homo sapiens)
Sequence (P08833 26-259): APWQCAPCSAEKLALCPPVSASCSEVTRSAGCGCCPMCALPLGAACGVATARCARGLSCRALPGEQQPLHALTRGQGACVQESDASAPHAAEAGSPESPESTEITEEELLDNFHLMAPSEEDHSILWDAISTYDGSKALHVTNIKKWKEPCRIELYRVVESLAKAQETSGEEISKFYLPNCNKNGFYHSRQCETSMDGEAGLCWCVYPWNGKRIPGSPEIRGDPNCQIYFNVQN
Assay: BIAcore competition assay: IGFBP-1 binding to IGF-I
Design: made in house; host or cells: CHO cells
Settings: locked-helix variants
Positions of bridges follow the written chain, without caps; N, C: chain ends. No end group written: not given here.

Example results:
**Q:** Any idea what Fold potency reduction IC50 (BP1-01) / IC50 (mut) was measured for acRAGPLEWLAEKYEG (Ac-RAGPLEWLAEKYEG; bridge 6-13; not fully specified) [(i + 7)D] ?
**A:** 8

**Q:** Any idea what Fold potency reduction IC50 (BP1-01) / IC50 (mut) was measured for acRPLEWLAEKYFE (Ac-RPLEWLAEKYFE; bridge 4-12) [(i + 8)B] ?
**A:** 8

**Q:** Any idea what Fold potency reduction IC50 (BP1-01) / IC50 (mut) was measured for acRAGPLEWLAEKYFE (Ac-RAGPLEWLAEKYFE; bridge 6-14; not fully specified) [(i + 8)C] ?
**A:** 6

// switching to the query substance
**Q:** Any idea what Fold potency reduction IC50 (BP1-01) / IC50 (mut) was measured for acLEWLAEKYFE (Ac-LEWLAEKYFE; bridge 2-10) [(i + 8)A] ?
**A:** >200
